// provenance: patent US20260053834A1

# key: entry, value: pIC50
Tested on: LAPC4 prostate cancer cells, which express the AKT1 E17K allele
Experiment: Antiproliferative effects in LAPC4 cells (CellTiter Glo, 72 h)
Assay type: cell-based
Conditions: Homo sapiens, LAPC4, 72 h, read-out: LAPC4 proliferation IC50: GeoMean IC50
pIC50: −log10 of the molar value.

The examples below pair each entry with its known result.
[2H]C(=O)c1cc(C(=O)N[C@H]2CCc3cc(-n4c(-c5cccnc5N)nc5ccc(-n6cccn6)nc54)ccc32)c(F)c(F)c1O [Example 204]    7.00 to 8.00
C#Cc1c(C(=O)N[C@H]2CCc3cc(-n4c(-c5cccnc5N)nc5ccc(-n6cccn6)nc54)ccc32)ccc(O)c1C=O [Example 112]    ≤ 5.70
Nc1ccn(-c2ccc3nc(-c4cccnc4N)n(-c4ccc5c(c4)CC[C@@H]5NC(=O)c4ccc(O)c(C=O)c4)c3n2)n1 [Example 134]    5.70 to 7.00
Nc1ncccc1-c1nc2cc(O)c(-n3cccn3)nc2n1-c1ccc2c(c1)CC[C@@H]2NC(=O)c1cc(C=O)c(O)cc1F [Example 226]    7.00 to 8.00
Cc1cnc(N)c(-c2nc3ccc(-n4cccn4)nc3n2-c2ccc3c(c2)CC[C@@H]3NC(=O)c2ccc(O)c(C=O)c2)c1 [Example 167]    ≤ 5.70

Lab book: pIC50 of CS(=O)(=O)Nc1ccc(C(=O)N[C@H]2CCc3cc(-n4c(-c5cccnc5N)nc5ccc(-n6cccn6)nc54)ccc32)cc1C=O [Example 86] noted as 7.00 to 8.00

Lab book: pIC50 of Nc1ncccc1-c1nc2ccc(-c3nccs3)nc2n1-c1ccc2c(c1)CC[C@@H]2NC(=O)c1ccc(O)c(C=O)c1 [Example 57] noted as 7.00 to 8.00

Lab book: pIC50 of Nc1ncccc1-c1nc2c(Cl)cc(-n3cccn3)nc2n1-c1ccc2c(c1)CC[C@@H]2NC(=O)c1ccc(O)c(C=O)c1 [Example 196] noted as 5.70 to 7.00

====

Target: UniProtKB P31751
Sequence (P31751 whole entry): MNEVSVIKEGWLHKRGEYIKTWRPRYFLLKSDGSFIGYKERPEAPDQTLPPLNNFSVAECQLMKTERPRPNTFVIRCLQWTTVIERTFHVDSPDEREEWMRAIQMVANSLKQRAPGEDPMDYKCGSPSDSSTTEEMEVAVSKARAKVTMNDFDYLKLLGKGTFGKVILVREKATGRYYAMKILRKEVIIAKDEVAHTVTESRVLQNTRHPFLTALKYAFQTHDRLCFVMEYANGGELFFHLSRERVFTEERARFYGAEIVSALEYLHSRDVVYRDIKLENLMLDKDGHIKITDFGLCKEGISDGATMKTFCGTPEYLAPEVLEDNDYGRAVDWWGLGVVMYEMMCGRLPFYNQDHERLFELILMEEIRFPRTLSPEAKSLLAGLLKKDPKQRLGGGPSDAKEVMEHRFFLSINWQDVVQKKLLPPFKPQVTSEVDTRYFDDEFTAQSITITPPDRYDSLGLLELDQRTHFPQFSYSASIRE
Test: Live cell target engagement by NanoBRET competitive probe displacement, AKT2
Settings: transfected HEK293 cells, 2 h at 37° C., read-out: AKT2 IC50: GeoMean IC50
# key: entry, value: IC50

The examples below pair each entry with its known result.
Nc1ncccc1-c1nc2ccc(-c3ccccc3)nc2n1-c1ccc2c(c1)CC[C@@H]2NC(=O)c1ccc(NC(=O)C(F)F)c(C=O)c1    10 to 100 nM
Nc1ncccc1-c1nc2ccc(-c3ccccc3)nc2n1-c1ccc2c(c1)CC[C@@H]2NC(=O)c1cc(C=O)c(O)c(Cl)n1    100 to 2000 nM
Cc1cc(-n2cccn2)nc2c1nc(-c1cccnc1N)n2-c1ccc2c(c1)CC[C@@H]2NC(=O)c1ccc(O)c(C=O)c1    10 to 100 nM
Nc1ncccc1-c1nc2ccc(-n3cccn3)nc2n1-c1ccc2c(c1)CC[C@@H]2NC(=O)c1cc(F)c(O)c(C=O)c1    100 to 2000 nM
Cc1cnc(-c2ccc3nc(-c4cccnc4N)n(-c4ccc5c(c4)CC[C@@H]5NC(=O)c4cc(C=O)c(O)c(F)c4F)c3n2)s1    100 to 2000 nM

Lab book: IC50 of Nc1ncccc1-c1nc2ccc(-n3cccn3)nc2n1-c1ccc2c(c1)CC[C@@H]2n1cnc2cc(O)c(C=O)cc2c1=O noted as 100 to 2000 nM

Lab book: IC50 of COc1cc(O)c(C=O)cc1C(=O)N[C@H]1CCc2cc(-n3c(-c4cccnc4N)nc4ccc(-c5ccccc5)nc43)ccc21 noted as 100 to 2000 nM

Lab book: IC50 of COc1ccn(-c2ccc3nc(-c4cccnc4N)n(-c4ccc5c(c4)CC[C@@H]5NC(=O)c4ccc(O)c(C=O)c4)c3n2)n1 noted as 100 to 2000 nM

Lab book: IC50 of Cn1cc(-c2ccc3nc(-c4cccnc4N)n(-c4ccc5c(c4)CC[C@@H]5NC(=O)c4ccc(O)c(C=O)c4)c3n2)nn1 noted as 100 to 2000 nM

Lab book: IC50 of CS(=O)(=O)Nc1cc(F)c(C(=O)N[C@H]2CCc3cc(-n4c(-c5cccnc5N)nc5ccc(-n6cccn6)nc54)ccc32)cc1C=O noted as ≥ 2000 nM

Lab book: IC50 of Cc1ccn(-c2ccc3nc(-c4cccnc4N)n(-c4ccc5c(c4)CC[C@@H]5NC(=O)c4ccc(O)c(C=O)c4)c3n2)n1 noted as 100 to 2000 nM

Lab book: IC50 of Nc1ncccc1-c1nc2ccc(-n3cccn3)nc2n1-c1ccc2c(c1)[C@@H](O)C[C@@H]2NC(=O)c1ccc(O)c(C=O)c1 (single isomer, unassigned) noted as 100 to 2000 nM

Lab book: IC50 of Nc1ncccc1-c1nc2ccc(-n3cccn3)nc2n1-c1ccc2c(c1)CC[C@@H]2NC(=O)c1cc(C=O)c(O)c2ncoc12 noted as 100 to 2000 nM

Lab book: IC50 of Nc1ncccc1-c1nc2ccc(-n3nccn3)nc2n1-c1ccc2c(c1)CC[C@@H]2NC(=O)c1cc(C=O)c(O)c(F)c1F noted as 100 to 2000 nM

Lab book: IC50 of Nc1ncccc1-c1nc2ccc(-n3nccn3)nc2n1-c1ccc2c(c1)CC[C@@H]2NC(=O)c1ccc(O)c(C=O)c1 noted as 100 to 2000 nM

Lab book: IC50 of COc1ccc2nc(-c3cccnc3N)n(-c3ccc4c(c3)CC[C@@H]4NC(=O)c3ccc(O)c(C=O)c3)c2n1 noted as ≥ 2000 nM

Lab book: IC50 of Cn1ccc(-c2ccc3nc(-c4cccnc4N)n(-c4ccc5c(c4)CC[C@@H]5NC(=O)c4cc(C=O)c(O)cc4F)c3n2)n1 noted as 100 to 2000 nM

Lab book: IC50 of Nc1ncccc1-c1nc2ccc(-n3cccn3)nc2n1-c1ccc2c(c1)C(O)C[C@@H]2NC(=O)c1ccc(O)c(C=O)c1 (single isomer, unassigned) noted as 100 to 2000 nM

Lab book: IC50 of COCc1ccn(-c2ccc3nc(-c4cccnc4N)n(-c4ccc5c(c4)CC[C@@H]5NC(=O)c4ccc(O)c(C=O)c4)c3n2)n1 noted as 100 to 2000 nM

Lab book: IC50 of Nc1ncccc1-c1nc2ccc(-n3cccn3)nc2n1-c1ccc2c(c1)CC[C@@H]2NC(=O)c1cc(C=O)c(O)c(F)c1F noted as 10 to 100 nM

Lab book: IC50 of Nc1ncccc1-c1nc2ccc(-n3ccc(F)n3)nc2n1-c1ccc2c(c1)CC[C@@H]2NC(=O)c1cc(C=O)c(O)c(F)c1F noted as 100 to 2000 nM

Lab book: IC50 of Nc1ncccc1-c1nc2ccc(-n3ccc(F)n3)nc2n1-c1ccc2c(c1)CC[C@@H]2NC(=O)c1cc(C=O)c(O)cc1F noted as 100 to 2000 nM

Lab book: IC50 of Nc1ncccc1-c1nc2ccc(-c3cnn(C(F)F)c3)nc2n1-c1ccc2c(c1)CC[C@@H]2NC(=O)c1ccc(O)c(C=O)c1 noted as 100 to 2000 nM

Lab book: IC50 of Nc1ncccc1-c1nc2ccc(-c3ncc(C(F)F)s3)nc2n1-c1ccc2c(c1)CC[C@@H]2NC(=O)c1ccc(O)c(C=O)c1 noted as 100 to 2000 nM

Lab book: IC50 of CS(=O)(=O)Nc1ccc(C(=O)N[C@H]2CCc3cc(-n4c(-c5cccnc5N)nc5ccc(-c6ccccc6)nc54)ccc32)cc1C=O noted as 10 to 100 nM
